molecular target: PRMT5/MEP50 (Homo sapiens); construct: Flag-PRMT5; made in house; host or cells: Spodoptera frugiperda (SF9), baculovirus; experiment: PRMT5 Biochemical Assay (PRMT5/MEP50 enzyme assay on histone H4 peptide substrate, 3H-SAM Flashplate); conditions: PRMT5 biochemical assay; read-out: Biochemical IC50
Sequence (O14744 with tags, fused parts or gaps): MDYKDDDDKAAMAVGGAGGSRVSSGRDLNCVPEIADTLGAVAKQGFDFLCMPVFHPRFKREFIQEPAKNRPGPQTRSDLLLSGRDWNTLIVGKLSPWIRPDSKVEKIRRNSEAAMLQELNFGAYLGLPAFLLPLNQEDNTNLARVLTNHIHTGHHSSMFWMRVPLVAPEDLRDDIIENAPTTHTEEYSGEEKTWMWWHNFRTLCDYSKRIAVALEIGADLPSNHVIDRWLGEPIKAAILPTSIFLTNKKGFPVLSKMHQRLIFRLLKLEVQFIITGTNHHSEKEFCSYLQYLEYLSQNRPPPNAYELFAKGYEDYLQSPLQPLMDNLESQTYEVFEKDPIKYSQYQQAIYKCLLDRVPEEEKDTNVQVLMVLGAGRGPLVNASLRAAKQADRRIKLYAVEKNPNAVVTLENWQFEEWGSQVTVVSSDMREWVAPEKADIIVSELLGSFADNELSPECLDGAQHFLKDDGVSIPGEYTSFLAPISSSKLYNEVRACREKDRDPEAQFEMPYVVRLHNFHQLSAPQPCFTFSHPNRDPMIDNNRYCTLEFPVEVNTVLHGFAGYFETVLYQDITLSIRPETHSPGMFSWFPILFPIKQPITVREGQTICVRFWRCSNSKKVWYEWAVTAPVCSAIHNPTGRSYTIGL
Sequence (Q9BQA1 with tags, fused parts or gaps partner limits assumed): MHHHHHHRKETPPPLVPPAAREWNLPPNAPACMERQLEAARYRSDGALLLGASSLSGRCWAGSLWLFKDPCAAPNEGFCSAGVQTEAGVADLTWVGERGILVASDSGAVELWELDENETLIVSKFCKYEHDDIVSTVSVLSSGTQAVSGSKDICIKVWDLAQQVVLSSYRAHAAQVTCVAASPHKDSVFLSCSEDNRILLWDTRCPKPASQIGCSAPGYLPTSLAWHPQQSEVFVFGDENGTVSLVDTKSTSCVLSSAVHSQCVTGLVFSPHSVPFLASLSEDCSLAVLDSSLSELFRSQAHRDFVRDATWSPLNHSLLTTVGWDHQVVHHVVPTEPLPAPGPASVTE
pIC50: −log10 of the molar value.
For each of the compounds below, state its pIC50.

Some solved entries appear below for comparison.
[
  {
    "COMPOUND": "CN(C)CCN(C)C[C@H]1O[C@@H](n2cnc3c(N)ncnc32)[C@H](O)[C@@H]1O",
    "pIC50": "6.00 to 7.00"
  },
  {
    "COMPOUND": "Cc1ccccc1N1CC(NS(=O)(=O)c2cccc3c(N(C)C)cccc23)CC1=O (centres unmarked)",
    "pIC50": "6.00 to 7.00"
  },
  {
    "COMPOUND": "CN(C)c1cccc2c(S(=O)(=O)NCCC(N)Cc3ccccc3)cccc12 (centres unmarked)",
    "pIC50": "> 7.00"
  },
  {
    "COMPOUND": "COc1cc(NC(=O)CC2NC(N3CCN(c4ccccc4)CC3)=NC2=O)ccc1Cl (centres unmarked)",
    "pIC50": "5.00 to 6.00"
  },
  {
    "COMPOUND": "CCOc1c(C)cc(S(=O)(=O)NCC2CCN(Cc3ccccc3Br)CC2)cc1C",
    "pIC50": "6.00 to 7.00"
  },
  {
    "COMPOUND": "CC(CN)N(C)C[C@H]1O[C@@H](n2cnc3c(N)ncnc32)[C@H](O)[C@@H]1O (some centres unmarked)",
    "pIC50": "6.00 to 7.00"
  },
  {
    "COMPOUND": "CN(CCNC1CCC(C(C)(C)C)CC1)C[C@H]1O[C@@H](n2cnc3c(N)ncnc32)[C@H](O)[C@@H]1O (some centres unmarked)",
    "pIC50": "6.00 to 7.00"
  }
]

Please look up its pIC50: Cc1ccc(C(=O)CC2NC(N3CCN(Cc4ccccc4)CC3)=NC2=O)cc1 (centres unmarked) 5.00 to 6.00

* * *

target: PRMT5/MEP50 (Homo sapiens); construct: Flag-PRMT5; made in house; host or cells: Spodoptera frugiperda (SF9), baculovirus; assay: PRMT5 Biochemical Assay (PRMT5/MEP50 enzyme assay on histone H4 peptide substrate, 3H-SAM Flashplate); conditions: PRMT5 biochemical assay; read-out: Biochemical IC50
pIC50: −log10 of the molar value.
OBSERVABLE: pIC50

[
  {
    "COMPOUND": "COc1cccc(NC(=O)CC2NC(N3CCN(c4ccccc4)CC3)=NC2=O)c1 (stereo not shown)",
    "pIC50": "4.30 to 5.00"
  },
  {
    "COMPOUND": "Cc1ccc(NC(=O)CC2NC(N3CCN(c4ccccc4)CC3)=NC2=O)cc1 (stereo not shown)",
    "pIC50": "5.00 to 6.00"
  },
  {
    "COMPOUND": "CC(NCCN(C)C[C@H]1O[C@@H](n2cnc3c(N)ncnc32)[C@H](O)[C@@H]1O)c1ccc(Br)cc1 (stereo partly shown)",
    "pIC50": "> 7.00"
  }
]

# batch size: 6; output pIC50 per entry
1. CN(CCNCc1ccc(Cl)cc1F)C[C@H]1O[C@@H](n2cnc3c(N)ncnc32)[C@H](O)[C@@H]1O
2. CC(=O)N1CC(Nc2cc(C(=O)NCC(C)(O)CN3CCc4ccccc4C3)ncn2)C1 (stereo not shown)
3. NCCCN(CCN)C[C@H]1O[C@@H](n2cnc3c(N)ncnc32)[C@H](O)[C@@H]1O
4. O=C(NC[C@@H](O)CN1CCc2ccccc2C1)c1cccc(NC2CCOCC2)c1
5. O=C(NC[C@H](O)CN1Cc2ccccc2C1)c1cncc(NC2CCN(CC(F)(F)F)C2)c1 (stereo partly shown)
6. CN(C)c1cccc2c(S(=O)(=O)NC[C@@H](N)Cc3ccccc3)cccc12

["6.00 to 7.00", "6.00 to 7.00", "> 7.00", "6.00 to 7.00", "6.00 to 7.00", "> 7.00"]

# batch size: 7; output pIC50 per entry
1. CN(C)c1cccc2c(S(=O)(=O)NC3CCN(Cc4ccccc4)CC3)cccc12
2. CC(CO)NCCN(C)C[C@H]1O[C@@H](n2cnc3c(N)ncnc32)[C@H](O)[C@@H]1O (stereo partly shown)
3. CN(CCN(C)C[C@H]1O[C@@H](n2cnc3c(N)ncnc32)[C@H](O)[C@@H]1O)Cc1ccc(Cl)cc1
4. CN(CCNCCc1ccccc1Cl)C[C@H]1O[C@@H](n2cnc3c(N)ncnc32)[C@H](O)[C@@H]1O
5. N#Cc1ccc(C(=O)CC2NC(N3CCN(c4ccccc4)CC3)=NC2=O)cc1 (stereo not shown)
6. O=C(CC1NC(N2CCN(c3ccccc3)CC2)=NC1=O)Nc1cccc(Cl)c1Cl (stereo not shown)
7. O=C(CC1NC(N2CCc3ccccc3C2)=NC1=O)Nc1ccc(Cl)cc1 (stereo not shown)

["> 7.00", "> 7.00", "6.00 to 7.00", "> 7.00", "5.00 to 6.00", "4.30 to 5.00", "6.00 to 7.00"]
